- System: ML2
- assay-procedure: Secondary dose-response HTS, Cell Titer Glo
- Type: cell-based, human
- cond: Homo sapiens; secondary high-throughput screen; ML-2; read-out: average effective concentration, ML-2
One threshold, 50 nM, splits the recorded EC50 values: lower ones are true (1), equal or higher ones are false (0).

Q: EC50 under 50 nM? Item: COc1cc2c(NC3CCN(C(C)C)CC3)nc(C3CCCCC3)nc2cc1OCCCN1CCCC1 [UNC0638 HYDRATE]
A: false (0)

Q: EC50 under 50 nM? Item: Cc1ccc2nc(NCCN)c3ncc(C)n3c2c1 [BMS-345541]
A: false (0)

Q: EC50 under 50 nM? Item: O=c1[nH]c(=O)n([C@H]2C[C@H](O)[C@@H](CO)O2)cc1F [FLOXURIDINE]
A: true (1)

Q: EC50 under 50 nM? Item: CN(Cc1cnc2nc(N)nc(N)c2n1)c1ccc(C(=O)N[C@@H](CCC(=O)O)C(=O)O)cc1 [METHOTREXATE]
A: true (1)

Q: EC50 under 50 nM? Item: O=C(/C=C/c1cccnc1)NCCCCC1CCN(C(=O)c2ccccc2)CC1 [DAPORINAD]
A: true (1)

Q: EC50 under 50 nM? Item: Cc1nc2ccc(CN(C)c3ccc(C(=O)N[C@@H](CCC(=O)O)C(=O)O)s3)cc2c(=O)[nH]1 [RALTITREXED]
A: false (0)

Q: EC50 under 50 nM? Item: CN1CC[C@H](c2c(O)cc(O)c3c(=O)cc(-c4ccccc4Cl)oc23)[C@H](O)C1 [ALVOCIDIB]
A: true (1)

Q: EC50 under 50 nM? Item: Cc1cc(Nc2cc(CN3CCOCC3)c3nc(C)c(Cc4ccc(Cl)cc4F)n3n2)n[nH]1 [GANDOTINIB]
A: false (0)

----------
Record form. Attribute: MOLM-13 %inh. Fill in for each entry.
- Tested on: MOLM-13
- Parameters: species or system AML cell lines (8); Primary HTS, single concentration about 10 uM, Cell Titer Glo viability; log10 luminescence, per cent inhibition relative to cycloheximide control
- cond: 72 h, relative to cycloheximide control, log10 luminescence; inhibitor
The answer is to be given in %; state only the numeric part.

Q: Give MOLM-13 %inh for COc1cccc(C2=C(c3c(C)n(C)c4ccccc34)C(=O)NC2=O)c1 [SJ000581144-1]
A: 3.467

Q: Give MOLM-13 %inh for CC1(C)CCC(C)(C)c2cc(C3(c4ccc5cc(C(=O)O)ccc5c4)SCCS3)ccc21 [SJ000573478-2, MM 11253]
A: 2.534

Q: Give MOLM-13 %inh for NC(N)=NCCS[C@@H](CC(=O)O)C(=O)O [SJ000772425-1, GEMSA]
A: 0.138

Q: Give MOLM-13 %inh for CC[N+](C)(CC)CCOC(=O)C(O)(c1ccccc1)C1CCCCC1 (stereo not shown) [SJ000555718-1, OXYPHENONIUM BROMIDE]
A: 7.019

----------
Record form. Attribute: ML-2 %inh. Fill in for each entry.
- Tested on: ML-2
- Design: species or system AML cell lines (8); Primary HTS, single concentration about 10 uM, Cell Titer Glo viability; log10 luminescence, per cent inhibition relative to cycloheximide control
- cond: 72 h, relative to cycloheximide control, log10 luminescence, inhibitor, ML-2 %inh, 10 µM
Where a name gives a salt, the structure may show the parent alone. Square brackets hold non-standard residues; d marks the D form. Peptide text beside a SMILES is read from it. * marks the point of attachment. Sta = CC(C)C[C@H](N)[C@@H](O)CC(=O)O; Isovaleryl = CC(C)CC(=O)*
The answer is to be given in %; state only the numeric part.

Q: Given CNC(=O)[C@@H](NC(=O)[C@H](CC(C)C)[C@H](O)C(=O)NO)C(C)(C)C , report its ML-2 %inh on ML-2.
A: 1.691

Q: Given O=[N+]([O-])c1ccc(Oc2ccc(Br)cc2)c(C(O)P(=O)(O)O)c1 (single isomer, unassigned) , report its ML-2 %inh on ML-2.
A: 4.625

Q: Given CN[C@@H]1[C@H](O[C@H]2[C@H](O[C@H]3[C@H](O)[C@@H](O)[C@H](N=C(N)N)[C@@H](O)[C@@H]3N=C(N)N)O[C@@H](C)[C@]2(O)C=O)O[C@@H](CO)[C@H](O)[C@H]1O [SJ000285297-4, STREPTOMYCIN SULFATE] , report its ML-2 %inh on ML-2.
A: -3.476

Q: Given CCCC(CCC)C(=O)O , report its ML-2 %inh on ML-2.
A: -1.422

Q: Given CC=CC1=C(C(=O)O)N2C(=O)[C@@H](NC(=O)[C@H](N)c3ccc(O)cc3)[C@H]2SC1 , report its ML-2 %inh on ML-2.
A: -1.058

Q: Given CC(C)CC(=O)N[C@H](C(=O)N[C@H](C(=O)N[C@@H](CC(C)C)[C@@H](O)CC(=O)N[C@@H](C)C(=O)N[C@@H](CC(C)C)[C@@H](O)CC(=O)O)C(C)C)C(C)C [SJ000287258-4, PEPSTATIN A] (Isovaleryl-VV[Sta]A[Sta]-OH) , report its ML-2 %inh on ML-2.
A: -2.254

Q: Given CC(=O)/N=c1/sc(S(N)(=O)=O)nn1C [SJ000285971-4, METHAZOLAMIDE] , report its ML-2 %inh on ML-2.
A: 1.069

Q: Given CCOC(=O)C1=C(C)NC(C)=C(C(=O)OCC)C1c1ccccc1/C=C/C(=O)OC(C)(C)C , report its ML-2 %inh on ML-2.
A: 5.24

Q: Given Cc1ccc(C)c(OCCCC(C)(C)C(=O)O)c1 [SJ000285775-5, GEMFIBROZIL] , report its ML-2 %inh on ML-2.
A: 5.256

Q: Given C[C@H](CS)C(=O)N1CCC[C@H]1C(=O)O [SJ000286908-8, CAPTOPRIL] , report its ML-2 %inh on ML-2.
A: -1.462

Q: Given Cc1ccccc1N1CCN(CCc2nnc3n2CCCC3)CC1 [SJ000565164-1, DAPIPRAZOLE HYDROCHLORIDE] , report its ML-2 %inh on ML-2.
A: 2.518

Q: Given CCOc1cc(CC(=O)N[C@@H](CC(C)C)c2ccccc2N2CCCCC2)ccc1C(=O)O [SJ000287528-3, REPAGLINIDE] , report its ML-2 %inh on ML-2.
A: -0.6814

Q: Given CCCC[C@@H](C=O)NC(=O)[C@H](CC(C)C)NC(=O)OCc1ccccc1 , report its ML-2 %inh on ML-2.
A: -0.6331

Q: Given CC(C)C(=O)OCC(=O)[C@@]12O[C@H](C3CCCCC3)O[C@@H]1C[C@H]1[C@@H]3CCC4=CC(=O)C=C[C@]4(C)[C@H]3[C@@H](O)C[C@@]12C [SJ000565158-1, CICLESONIDE] , report its ML-2 %inh on ML-2.
A: -1.054

Q: Given C[C@H](CS)C(=O)N1CCC[C@H]1C(=O)O [SJ000286908-10, CAPTOPRIL] , report its ML-2 %inh on ML-2.
A: -0.772

Q: Given CO[C@@H]1[C@H](OC(=O)/C=C/C=C/C=C/C=C/C(=O)O)CC[C@]2(CO2)[C@H]1[C@@]1(C)O[C@@H]1CC=C(C)C , report its ML-2 %inh on ML-2.
A: 2.951

Q: Given O=C1NC(=O)/C(=C\c2ccc3nccnc3c2)S1 , report its ML-2 %inh on ML-2.
A: 1.156

Q: Given CC[C@H]1OC(=O)[C@H](C)[C@@H](O[C@H]2C[C@@](C)(OC)[C@@H](O)[C@H](C)O2)[C@H](C)[C@@H](O[C@@H]2O[C@H](C)C[C@H](N(C)C)[C@H]2O)[C@](C)(OC)C[C@@H](C)C(=O)[C@H](C)[C@@H](O)[C@]1(C)O , report its ML-2 %inh on ML-2.
A: -1.428

Q: Given CC1/C=C/C=C/C=C/C=C/C=C/C=C/C=C/C(OC2O[C@H](C)[C@@H](O)[C@H](N)[C@@H]2O)CC(O)C(C(=O)O)C(O)CC(=O)CC(O)CC(O)CC(O)CC(=O)CCCC(=O)CC(=O)OC1C(C)CC(C)C(O)CC(=O)c1ccc(N)cc1 (single isomer, unassigned) , report its ML-2 %inh on ML-2.
A: -0.08515

Q: Given C[C@@H]1CN(c2c(F)c(N)c3c(=O)c(C(=O)O)cn(C4CC4)c3c2F)C[C@H](C)N1 , report its ML-2 %inh on ML-2.
A: 2.462

Q: Given OC[C@H]1O[C@@H](O[C@@H]2[C@@H](CO)OC(O)(CO)[C@H]2O)[C@H](O)[C@@H](O)[C@H]1O (mixture of isomers) , report its ML-2 %inh on ML-2.
A: -0.1648

Q: Given Cc1cccc(Nc2ccncc2S(=O)(=O)NC(=O)NC(C)C)c1 [SJ000286085-4, TORSEMIDE] , report its ML-2 %inh on ML-2.
A: -0.2644

Q: Given COc1cc2c(cc1O)CC[C@@H]1[C@@H]2CC[C@]2(C)[C@@H](O)CC[C@@H]12 [SJ000288002-5] , report its ML-2 %inh on ML-2.
A: 56.77

Q: Given COCCOC(=O)C1=C(C)NC(C)=C(C(=O)OC(C)C)C1c1cccc([N+](=O)[O-])c1 (centres unmarked) [SJ000285435-8, NIMODIPINE] , report its ML-2 %inh on ML-2.
A: 3.664

Q: Given Cc1ccc(C)c(OCCCC(C)(C)C(=O)O)c1 [SJ000285775-4, GEMFIBROZIL] , report its ML-2 %inh on ML-2.
A: -0.7985

Q: Given O=C(O[C@H]1C[C@H]2CC[C@@H](C1)[N+]21CCCC1)C(O)(c1ccccc1)c1ccccc1 [SJ000556733-1, TROSPIUM CHLORIDE] , report its ML-2 %inh on ML-2.
A: 2.085
